test system: Candida albicans; assay: Antifungal activity against Candida albicans in yeast extract-peptone-glucose medium at 375 ug/ml after 48 hrs by disc diffusion assay in presence of rhodamine 6G
value.kind: diameter of the inhibition zone (DIZ) (mm)
Answer format: numeric, mm implied, no suffix.

# example entries with known answers
structure.string | units | assay.value
O=C(C(=O)N1CCCC1)c1cn(CCCCn2cc(C(=O)C(=O)N3CCCC3)c3ccccc32)c2ccccc12 | mm | 7.5
O=C(C(=O)N1CCCC1)c1cn(CCCCCn2cc(C(=O)C(=O)N3CCCC3)c3ccccc32)c2ccccc12 | mm | 6.5
O=C(C(=O)N1CCOCC1)c1cn(CCCCCn2cc(C(=O)C(=O)N3CCOCC3)c3ccccc32)c2ccccc12 | mm | 8

Which diameter of the inhibition zone (DIZ) reading was recorded for the molecule "O=C(C(=O)N1CCOCC1)c1cn(CCCn2cc(C(=O)C(=O)N3CCOCC3)c3ccccc32)c2ccccc12" ?
7.5
